system: NCI-H322M lung; assay: NCI-60 one-dose screen, 48 h (100 = growth as untreated, 0 = no growth, -100 = all killed); settings: 10 µM unless noted
The panel holds about 83,000 compounds, 20% with a hit somewhere; the sample as a whole holds those more often.
Readout: growth (%)

- O=C(NCCCNc1cc(-c2cn(-c3ccccc3)nc2-c2cccc(O)c2)ccn1)c1cccc(O)c1: 111
- COc1ccc(/C=c2\nc3n(-c4ccccc4)c4nc5c6c(sc5c(=N)n4n-3c2=O)CCCC6)cc1: 94.6
- C[n+]1cc2c3c(ccc2c2ccc4cc5c(cc4c21)OCO5)OCO3: -93.8
- CS(=O)(=O)c1ccc(Nc2nc(N[C@H]3CCCC[C@H]3N)nc3cc[nH]c(=O)c23)cc1: 24.1
- S=C(c1ccc2c(c1)OCO2)N1CCN(c2ccccc2Cl)CC1: 103
